test system: Platelet; assay: Inhibition of ADP-induced platelet aggregation; format: functional, cell-based
The source made the active and inactive calls. No cut-off for these calls is given here.
MEASUREMENT LABEL: Activity

>>> df
                                   molecule  experimental_system  measurement_label    result
0  C[C@@H]1CN(C=O)[C@H]2[C@@H]1CC[C@]13COC(=O)CC[C@]21C1=CCC[C@@H]1CCC3=O             Platelet           Activity  inactive
1  C[C@@H]1CN2C(=O)CC[C@@]34C5=CCC[C@@H]5CCC5[C@H](O)OC[C@]53CC[C@H]1[C@H]24 (some centres undefined)             Platelet           Activity  inactive
2  C[C@@H]1CN(C=O)[C@H]2[C@@H]1CC[C@@]1(CO)C(=O)CC[C@H]3CCC=C3[C@@]21CCC(=O)O             Platelet           Activity  inactive
3  COC(=O)CC[C@@]12C3=CCC[C@@H]3CC[C@@H]3CN4C[C@@H](C)C(CC[C@@]31CO)C42 (some centres undefined)             Platelet           Activity  inactive
